Reference source for all entries: PubChem BioAssay AID1508612

Assay: passive permeability, PAMPA, ADME assay (AID 1508612)
Conditions: pH 7.4, 30.0 min, 50.0 µM
Quantity: Papp

Below are worked cases with known answers.
In [3]: df
Out[3]:
                                   compound  quantity        test_result
0  Cc1cnc(-c2ccccc2C(C)C)nc1NCC1CCN(c2cccnc2)C1 (centres undefined)      Papp  > 1000 ×10⁻⁶ cm/s
1  Cc1ccc(N(C)S(=O)(=O)c2ccc(-c3cnc(C4CC4)o3)cc2)cc1      Papp  > 1000 ×10⁻⁶ cm/s
2  CCOc1ccc(CCNC(=O)c2cc3sccc3n2CCN(C)C)cc1OCC      Papp  > 1000 ×10⁻⁶ cm/s

So, `COc1ccc(NC(=O)c2c(C)c(C(C)=O)c(C)n2C)cc1S(=O)(=O)Nc1ccc(Br)cc1` ? Its Papp was < 1 ×10⁻⁶ cm/s

###

Test: passive permeability, PAMPA, ADME assay (AID 1508612)
Conditions: pH 7.4, 30.0 min, 50.0 µM
Consider the following compounds and their measured Papp readings.
Write it as a number; the unit ×10⁻⁶ cm/s goes unstated.

>>> print(df.to_string())
                                smiles_data  test_result
0  NC(=O)C1CCN(c2nc(-c3ccc4ccccc4c3)cs2)CC1          406
1  Cc1ccc(NC(=O)N(Cc2cn(C)c3ccccc23)C2CCCCC2)cc1C         20.7

Alright, here's another compound for you.
So, `CCCSc1nc(N[C@@H]2C[C@H]2c2ccc(F)c(F)c2)c2nnn([C@@H]3C[C@H](OCCO)[C@@H](O)[C@H]3O)c2n1` ? Its Papp was 776

###

Assay: passive permeability, PAMPA, ADME assay (AID 1508612)
Conditions: pH 7.4, 30.0 min, 50.0 µM
Consider the following compounds and their measured Papp readings.
Write it as a number; the unit ×10⁻⁶ cm/s goes unstated.

                                   compound  test_result
0  O=C(NCc1ccccc1)C1CCN(c2nc(-c3ccc(Br)cc3)cs2)CC1         23.2
1  COc1cccc(S(=O)(=O)Nc2cnccc2C(=O)Nc2nc(-c3ccccc3)cs2)c1          696
2  COc1cccc2nc(-c3cccs3)nc(NN3C(=O)C=C(C)C3=O)c12          353
3  CCNC(=O)c1coc(COc2ccc3c(c2)C(c2ccc(F)cc2)N(C(=O)CC(C)C)CC3)n1 (configuration not stated)          938

So, `O=[S+]([O-])(Nc1nccs1)c1ccc(NCc2cccc(Cl)c2)cc1` ? Its Papp was 395

So, Cc1ccc2oc3c(c(=O)c2c1)C(c1cccc(O)c1)N(CCCN1CCOCC1)C3=O (configuration not stated) ? Its Papp was 103

So, `O=S(=O)(c1ccc2ccccc2c1)N1CCN(c2nc(-c3cccs3)nc3ccccc23)CC1` ? Its Papp was 3.2

So, `Cc1cc(NS(=O)(=O)c2ccc(NC(=O)Cc3ccc(Cl)c(F)c3)cc2)no1` ? Its Papp was 11.5

So, `O=C(NCCCO)c1ccc(-c2ncc3cnc(-c4cccc(F)c4)cn23)cc1` ? Its Papp was 32

###

Experiment: passive permeability, PAMPA, ADME assay (AID 1508612)
Settings: pH 7.4, 30.0 min, 50.0 µM
Quantity: Papp

Below are worked cases with known answers.
In [3]: df
Out[3]:
                                   molecule        test_result
0  COc1ccc(-n2nc(C3CCCN(C(=O)c4ccccc4)C3)[nH]c2=O)cc1 (stereo not drawn)     < 1 ×10⁻⁶ cm/s
1  CCOc1ccc(CCNC(=O)c2cc3cccnc3n2Cc2cccc(C)c2)cc1OCC  > 1000 ×10⁻⁶ cm/s

Alright, here's another molecule for you.
So, `CN(C)C(=O)c1nc(-c2ccc(Cl)cc2Cl)c2cnccn12` ? Its Papp was > 1000 ×10⁻⁶ cm/s

###

Assay: passive permeability, PAMPA, ADME assay (AID 1508612)
Details: pH 7.4, 30.0 min, 50.0 µM
Consider the following compounds and their measured Papp readings.
Write it as a number; the unit ×10⁻⁶ cm/s goes unstated.

Below are worked cases with known answers.
                                smiles_data  quantity   unit_text  test_result
0  COc1cc(-c2nc(Nc3ccc(F)c(F)c3)c3ccccc3n2)ccn1      Papp  ×10⁻⁶ cm/s         22.5
1  CN(C)c1cccc(-c2cc(N3CCC(C(N)=O)CC3)ncn2)c1      Papp  ×10⁻⁶ cm/s         37.8

So, `Cn1cc(C2=C(c3cn(CCCSC(=N)N)c4ccccc34)C(=O)NC2=O)c2ccccc21` ? Its Papp was 11.1

###

Assay: passive permeability, PAMPA, ADME assay (AID 1508612)
Conditions: pH 7.4, 30.0 min, 50.0 µM
Quantity: Papp

                                smiles_data        test_result
0  CCC[C@@H]1CN(C(=O)c2ccc(-c3ccc(C)o3)cc2)C[C@H]1NC(C)=O  > 1000 ×10⁻⁶ cm/s
1            CCOC(=O)c1ccc(NC2CCCCC2)c(N)c1  > 1000 ×10⁻⁶ cm/s

Alright, here's another compound for you.
So, `Cc1cc(-c2nnc3n2CCCCC3)c(C)n1-c1ccc(C(F)(F)F)cc1` ? Its Papp was > 1000 ×10⁻⁶ cm/s

###

Consider the following compounds and their measured Papp readings.
Assay: passive permeability, PAMPA, ADME assay (AID 1508612)
Details: pH 7.4, 30.0 min, 50.0 µM
Write it as a number; the unit ×10⁻⁶ cm/s goes unstated.

>>> print(df.to_string())
                                   compound  test_result
0  COc1ccc(-n2c(C)cc(C3=NNC(=NC4CC4)SC3)c2C)cc1          610
1  CNc1nc2c(s1)C(c1ccccc1F)CC(=O)N2 (stereo not given)           52

So, `Brc1ccc(-c2csc(N3CCCCC3)n2)cc1` ? Its Papp was 111

So, `Cc1ccc(S(=O)(=O)Nc2cnccc2C(=O)NCCc2ccccc2)cc1` ? Its Papp was 20.3

So, Cc1ccccc1C(=O)Nc1nc2c(s1)CC(C(C)(C)C)CC2 (stereo not given) ? Its Papp was 257

So, `O=C(Nc1ccc(Cl)c(S(=O)(=O)N2CCOCC2)c1)c1ccccc1` ? Its Papp was 728

So, `Fc1cc(Nc2nc(-c3ccncc3)nc3ccccc23)ccc1-c1ccc2[nH]ncc2c1` ? Its Papp was 42

So, `Cn1c2ccccc2c(=O)c2c(=O)n(-c3ccccc3)c(C3CCCCC3)nc21` ? Its Papp was 440

So, O=C1CCCC2=C1C(c1[nH]ncc1Cl)N=C(Nc1nc3ccc(Cl)cc3o1)N2 (stereo not given) ? Its Papp was 651

###

Test: passive permeability, PAMPA, ADME assay (AID 1508612)
Details: pH 7.4, 30.0 min, 50.0 µM
Quantity: Papp (×10⁻⁶ cm/s)
Write it as a number; the unit ×10⁻⁶ cm/s goes unstated.

                                   compound  test_result
0  CCOc1ccccc1N(CC(=O)N1CCOCC1)S(=O)(=O)c1ccc(SC)cc1          550

Alright, here's another compound for you.
So, CC(C)CC(C)NC(=O)c1noc(-c2ccc[nH]c2=O)n1 (stereo not drawn) ? Its Papp was 16.6

###

Experiment: passive permeability, PAMPA, ADME assay (AID 1508612)
Settings: pH 7.4, 30.0 min, 50.0 µM
Consider the following molecules and their measured Papp readings.
Write it as a number; the unit ×10⁻⁶ cm/s goes unstated.

Below are worked cases with known answers.
>>> df
                                   molecule   unit_text  test_result
0  CC[C@@H]1C(=O)N(C)c2cnc(Nc3ccc(C(=O)NC4CCN(C)CC4)cc3OC)nc2N1C1CCCC1  ×10⁻⁶ cm/s          561
1  Cc1ccc(S(=O)(=O)Nc2cnccc2C(=O)Nc2nc(-c3cccc(F)c3)cs2)cc1  ×10⁻⁶ cm/s          153
2  Cc1n[nH]c(C)c1CCc1nc2c3ccccc3nc(SCC(=O)Nc3ccc(F)cc3)n2n1  ×10⁻⁶ cm/s          122
3     CCc1ccccc1Nc1ncnc2c1cnn2-c1ccc(Cl)cc1  ×10⁻⁶ cm/s          253

So, NC1CCC(Nc2nc(Nc3ccc(C(=O)N4CCCCC4)cc3)c3ncn(-c4cccc(F)c4)c3n2)CC1 (configuration not stated) ? Its Papp was 21.8

So, `O=C(NCCCNc1nc(Nc2cccc(CN3CCOCC3)c2)ncc1C1CC1)C1CCC1` ? Its Papp was 905

So, `O=[S+]([O-])(Nc1ccc(N2CCNCC2)cc1)c1ccc(NCc2cccc(Cl)c2O)cc1` ? Its Papp was 7.65
